molecular target: Genome polyprotein (Hepatitis C virus genotype 1a (isolate H77), UniProt P27958); assay: Continuous Spectrophotometric Assay; details: pH 6.5; 30 °C
Sequence (P27958 1027-1657 limits assumed): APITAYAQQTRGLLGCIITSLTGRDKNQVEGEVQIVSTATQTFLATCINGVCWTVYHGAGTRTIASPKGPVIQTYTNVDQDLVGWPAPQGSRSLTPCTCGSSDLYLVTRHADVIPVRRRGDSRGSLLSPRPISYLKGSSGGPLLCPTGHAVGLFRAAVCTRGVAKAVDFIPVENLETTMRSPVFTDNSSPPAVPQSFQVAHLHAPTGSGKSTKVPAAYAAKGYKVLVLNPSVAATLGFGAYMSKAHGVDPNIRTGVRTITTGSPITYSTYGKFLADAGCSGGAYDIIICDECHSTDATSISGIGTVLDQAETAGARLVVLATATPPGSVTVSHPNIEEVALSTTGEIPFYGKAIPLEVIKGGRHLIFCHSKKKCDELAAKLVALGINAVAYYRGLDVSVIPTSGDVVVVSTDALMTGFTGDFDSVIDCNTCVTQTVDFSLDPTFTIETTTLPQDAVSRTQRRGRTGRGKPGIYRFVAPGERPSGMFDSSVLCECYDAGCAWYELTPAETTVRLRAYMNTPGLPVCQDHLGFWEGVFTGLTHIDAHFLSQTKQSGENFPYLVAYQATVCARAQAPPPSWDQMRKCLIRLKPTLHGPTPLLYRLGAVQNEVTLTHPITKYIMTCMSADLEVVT
assay_readout: Ki (µM)

[
  {
    "molecule": "C=CCNC(=O)C(=O)C(CCC)NC(=O)[C@@H]1CN(Cc2ccccc2)C(=O)N1C(=O)[C@@H](NC(=O)[C@@H](NC(=O)[C@H](CCC(=O)OC(C)(C)C)NC(=O)[C@H](CCC(=O)OC(C)(C)C)NC(C)=O)C(C)C)C(C)C (some centres undefined)",
    "unit_string": "µM",
    "Ki": 61
  }
]

(P) C=CCNC(=O)C(=O)C(CCC)NC(=O)[C@@H]1CN(CC(=O)OCC)C(=O)N1C(=O)[C@@H](NC(=O)[C@@H](NC(=O)OCC(C)C)C(C)C)C(C)C (some centres undefined)
(Q) C=CCNC(=O)C(=O)C(CCC)NC(=O)[C@@H]1CNC(=O)N1C(=O)[C@@H](NC(=O)[C@@H](NC(=O)[C@H](CCC(=O)O)NC(=O)[C@H](CCC(=O)O)NC(C)=O)C(C)C)C(C)C (some centres undefined)
Task: Field: entry with larger Ki (options P / Q ). Please indicate the selected item by its label.
Output: P
